tested on: barnyardgrass; experiment: Test C preemergence; assay type: in vivo, Echinochloa crus-galli; settings: preemergence, 62 g ai/ha; scale 0 to 100 (0 no effect, 100 complete control), 13 to 15 days

smiles: CCc1cc(C(=O)NC2CC2)nn1Cc1cc(C(F)(F)C(F)(F)F)nn1C
Barnyardgrass plant response rating: 65

smiles: CCCc1cc(C(=O)NCC)nn1Cc1cc(C(F)(F)F)nn1C
Barnyardgrass plant response rating: 100

smiles: CCCNC(=O)c1cc(CCC)n(Cc2cc(C(F)(F)F)nn2C)n1
Barnyardgrass plant response rating: 100

smiles: O=C(NCC(F)(F)F)c1cc(CCCl)n(Cc2ccnc(C(F)(F)F)c2)n1
Barnyardgrass plant response rating: 100

smiles: CCc1cc(C(=O)NCC2CC2)nn1Cc1ccnc(C(F)(F)F)c1
Barnyardgrass plant response rating: 100

smiles: CCCc1cc(C(=O)NOCC)nn1Cc1ccnc(C(F)(F)F)c1
Barnyardgrass plant response rating: 75

The measurements presented in this section are drawn from patent US20150105252A1.
